All figures here come from PubChem BioAssay (EPA / NIEHS).

Read-out: Human Leukocyte Antigen - DR isotype (HLADR), HLA-DRA (gene 3122)
Assay: BSK_BE3C_HLADR: BioMAP Diversity Plus: BE3C Assay for Human Leukocyte Antigen - DR isotype (HLADR) Biomarker Activity (AID 2283032)
Details: primary human bronchial epithelial cells; actives raise or lower the signal
Active and inactive are the calls of the source. How the source made its calls: active means hit-call score of the fitted dose curve at least 0.9, where 1 is the maximum; inactive means score below 0.9.
Reported Property: outcome

Compound: Fc1ccc(Br)cc1
Result: inactive

Compound: C=C(C)C(=O)OCCCCCCCCCCCC
Result: inactive

Compound: Nc1cccc(N)n1
Result: inactive

Compound: CC1=CC=C(C(C)C)CC1
Result: inactive

Compound: CC1(C)CC(O)CC(C)(C)N1[O]
Result: inactive

Compound: c1ccc2c(c1)[nH]c1ccccc12
Result: inactive

Compound: Nc1ccc(C(=O)O)cc1
Result: inactive

Compound: CCCCCCCCC(CO)CCCCCC (configuration not stated)
Result: inactive

Compound: C=CC(=O)NC(C)(C)C
Result: inactive

Compound: CCN1CN(CC)CN(CC)C1
Result: inactive

Compound: CCc1cccc(C)c1N(C(=O)CS(=O)(=O)O)C(C)COC (configuration not stated)
Result: inactive

Compound: CC(C)CCCCCOC(=O)CS
Result: inactive

----------
Target: Hypoxia-inducible factor 1-alpha (Homo sapiens) (UniProt Q16665)
Sequence (Q16665 whole entry, looked up): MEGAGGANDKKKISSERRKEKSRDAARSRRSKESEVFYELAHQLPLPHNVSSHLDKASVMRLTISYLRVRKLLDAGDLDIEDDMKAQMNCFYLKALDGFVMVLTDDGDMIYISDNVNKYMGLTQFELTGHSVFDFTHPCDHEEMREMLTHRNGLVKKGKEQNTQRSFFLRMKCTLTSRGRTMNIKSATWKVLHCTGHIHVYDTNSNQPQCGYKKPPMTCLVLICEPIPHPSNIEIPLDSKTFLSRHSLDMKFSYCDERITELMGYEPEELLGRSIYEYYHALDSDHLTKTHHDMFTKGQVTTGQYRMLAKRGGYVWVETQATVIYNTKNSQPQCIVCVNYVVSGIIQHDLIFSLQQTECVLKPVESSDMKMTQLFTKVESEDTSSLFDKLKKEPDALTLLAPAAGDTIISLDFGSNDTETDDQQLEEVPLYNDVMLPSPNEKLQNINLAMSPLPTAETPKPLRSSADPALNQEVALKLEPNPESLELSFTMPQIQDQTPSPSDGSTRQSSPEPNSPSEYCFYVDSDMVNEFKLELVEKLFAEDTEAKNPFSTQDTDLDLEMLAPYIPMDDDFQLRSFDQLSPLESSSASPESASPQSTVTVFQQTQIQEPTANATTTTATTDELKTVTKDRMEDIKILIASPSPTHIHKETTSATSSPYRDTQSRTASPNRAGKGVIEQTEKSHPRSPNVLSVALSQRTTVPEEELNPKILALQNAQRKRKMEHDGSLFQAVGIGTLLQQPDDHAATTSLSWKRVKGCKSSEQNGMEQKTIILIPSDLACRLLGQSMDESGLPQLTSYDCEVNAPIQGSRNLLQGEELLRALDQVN
Assay: ATG_HIF1a_CIS: Attagene CIS-FACTORIAL HepG2 Assay for human Hypoxia Inducible Factor 1 (HIF1A) (AID 2282951)
Conditions: HepG2 Attagene cis-factorial HIF1a reporter transcription; actives raise or lower the signal
Calls of active or inactive are those of the source. How the source made its calls: active means hit-call score of the fitted dose curve at least 0.9, where 1 is the maximum; inactive means score below 0.9.
Possible outcomes: y = active, n = inactive

Compound: COC(=O)c1ccc(C(=O)OC)c(C(=O)OC)c1
Assigned Class: n

Compound: CCCc1ccc(O)c(OC)c1
Assigned Class: n

Compound: CC(C)c1ccc(O)c(C(C)C)c1
Assigned Class: n

Compound: CN1CCN(C)CC1
Assigned Class: n

Compound: N#Cc1ccc(C2CCCc3cncn32)cc1 (stereo not drawn)
Assigned Class: n

Compound: O=C1CCCCCCCCCCC1
Assigned Class: n

Compound: CCC(C)C(=O)OCCc1ccccc1 (stereo not drawn)
Assigned Class: n

Compound: C=C(C)C(=O)OCCCCCCCCCCCC
Assigned Class: n

Compound: CC(C)OC(=O)c1ccccc1
Assigned Class: n

Compound: CCOC(=O)C1=NN(c2ccc(Cl)cc2Cl)C(C)(C(=O)OCC)C1 (stereo not drawn)
Assigned Class: n

Compound: Nc1ccc(C(=O)O)cc1
Assigned Class: n

Compound: Nc1nc(N)nc(-c2ccccc2)n1
Assigned Class: n

Compound: CC=C(C)C=CC=C(C)C
Assigned Class: n

Compound: CCCCOCC(C)O (stereo not drawn)
Assigned Class: n

Compound: CCCCC1CCC(=O)O1 (stereo not drawn)
Assigned Class: n

Compound: CCCCCCCCCCCC(=O)N(C)CC(=O)O
Assigned Class: n

Compound: CCCCCCCCCCCCCC(=O)OC(C)C
Assigned Class: n

Compound: CC1(C)CCC[C@]2(C)[C@H]3CC(=O)O[C@]3(C)CC[C@@H]12
Assigned Class: n

Compound: CC1OC(=O)C(C)OC1=O (stereo not drawn)
Assigned Class: y

Compound: CCOC(=O)c1ccccc1C
Assigned Class: n

Compound: CCCCOC(=O)C(C)CC (stereo not drawn)
Assigned Class: n

Compound: CCCCCC1=CCCC1=O
Assigned Class: n

Compound: C=CC(=O)NC(C)(C)C
Assigned Class: n

----------
Target: Nuclear receptor subfamily 1 group I member 2 (Homo sapiens)
Assay: ATG_PXR_TRANS: Attagene TRANS-FACTORIAL HepG2 Assay for human Pregnane X Receptor (PXR) (AID 2283008)
Records with an inconclusive call do not appear. The source made the active and inactive calls. Rule for the calls: active = hit-call score of the fitted dose curve at least 0.9, where 1 is the maximum; inconclusive = response in the unintended direction; inactive = score below 0.9.
Possible outcomes: active, inactive

Molecule: Cc1cccc(C(C)(C)C)c1O
Assigned Class: active

Molecule: CCCCOC(=O)C(C)CC (centres undefined)
Assigned Class: inactive

Molecule: CCCCCC1=CCCC1=O
Assigned Class: active

Molecule: CC(C)c1cc(C(C)C)cc(C(C)C)c1
Assigned Class: active

Molecule: O=C(O)C(F)(F)C(F)(F)C(F)(F)C(F)(F)C(=O)O
Assigned Class: inactive

Molecule: O=C(O)CC(C(=O)O)S(=O)(=O)O (centres undefined)
Assigned Class: inactive

Molecule: CCOC(=O)CC(=O)c1ccccc1
Assigned Class: inactive

Molecule: CCCCCCOc1ccc(N)cc1
Assigned Class: inactive

Molecule: CC(=O)OCc1ccccc1
Assigned Class: inactive

Molecule: CC(=O)c1ccccc1O
Assigned Class: inactive

Molecule: Cc1c[nH]c(=O)[nH]c1=O
Assigned Class: inactive

Molecule: Cn1cccc1
Assigned Class: inactive

Molecule: CC=C(C)C=CC=C(C)C
Assigned Class: active

Molecule: c1ccc2c(c1)[nH]c1ccccc12
Assigned Class: active

Molecule: C=C(C)C(=O)OCCOC(=O)C(=C)C
Assigned Class: inactive

Molecule: C=C1C[C@H]2[C@@H]3C=C(C)C4=CC(=O)CC[C@]4(C)[C@H]3CC[C@]2(C)[C@@]1(OC(C)=O)C(C)=O
Assigned Class: inactive

Molecule: Nc1ccc(C(=O)OCCCOC(=O)c2ccc(N)cc2)cc1
Assigned Class: active

Molecule: C=Cc1cccc(C)c1
Assigned Class: inactive

Molecule: CC(C)CCCCCOC(=O)CS
Assigned Class: inactive

----------
Read-out: Interleukin-8 (IL8), CXCL8 (gene 3576)
Experiment: BSK_hDFCGF_IL8: BioMAP Diversity Plus: hDFCGF Assay for Interleukin-8 (IL8) Biomarker Activity (AID 2283058)
Details: primary human foreskin fibroblasts; actives raise or lower the signal
Experimental: BSK_hDFCGF is a cell-based, multiplexed-readout assay that uses foreskin fibroblast, a human skin primary cell, with measurements taken at 24 hours after chemical dosing in a 96-well plate.BSK_hDFCGF_IL8 is an assay component measured in the BSK_hDFCGF assay. It measures IL-8 antibody related to regulation of gene expression using ELISA technology.Data from the assay component BSK_hDFCGF_IL8 was analyzed into 1 assay endpoint. […]
Calls of active or inactive are those of the source. How the source made its calls: active means hit-call score of the fitted dose curve at least 0.9, where 1 is the maximum; inactive means score below 0.9.
Reported Property: outcome

Compound: C1CNCCN1
Result: inactive
//
Compound: CC=C(C)C(C)=O
Result: inactive
//
Compound: CC(C)C(=O)OCCc1ccccc1
Result: inactive
//
Compound: C=CCCCCCCCCC=O
Result: inactive
//
Compound: C=CC(=O)OCCCCCCCC(C)C
Result: inactive
//
Compound: O=C1CCCCCCCCCCC1
Result: inactive
//
Compound: CC(C)[N+](C)(CCOC(=O)C1c2ccccc2Oc2ccccc21)C(C)C
Result: inactive
//
Compound: CCNc1nc(NC(C)(C)C)nc(OC)n1
Result: inactive
//
Compound: CC(C)CCCCCOC(=O)CS
Result: inactive
//
Compound: C=C(C)C(=O)OCCCCCCCCCCCC
Result: inactive
//
Compound: CCOC(=O)C1=NOC(c2ccccc2)(c2ccccc2)C1
Result: inactive
//
Compound: Nc1ccc(C(=O)O)cc1
Result: inactive
//
Compound: CCN1CN(CC)CN(CC)C1
Result: inactive
//
Compound: CCCCCCCCC(CO)CCCCCC (configuration not stated)
Result: inactive
//
Compound: Clc1cc(Cl)c(Cl)c(Cl)c1Cl
Result: inactive
//
Compound: CCCCCC1=CCCC1=O
Result: inactive
//
Compound: CCOC(=O)/C=C\C(=O)OCC
Result: inactive

----------
Target: Estrogen receptor (Homo sapiens)
Assay: OT_ERa_GFPERaERE_0120: Odyssey Thera (OT) 2-hour HeLa Transcription Induction Assay for Estrogen Receptor (AID 2283382)
Active and inactive are the calls of the source. Rule for the calls: active = hit-call score of the fitted dose curve at least 0.9, where 1 is the maximum; inconclusive = response in the unintended direction; inactive = score below 0.9.
Possible outcomes: True = active, False = inactive

Compound: Cc1cc(C)n(CO)n1
Assigned Class: False
--
Compound: C[Si](C)(C)N[Si](C)(C)C
Assigned Class: False
--
Compound: COc1ccc(C(=O)c2ccccc2)c(O)c1
Assigned Class: False
--
Compound: NC(=O)Nc1ccccc1
Assigned Class: False
--
Compound: Oc1ccc(-c2ccccc2)c(Cl)c1
Assigned Class: False
--
Compound: C=C1C[C@H]2[C@@H]3C=C(C)C4=CC(=O)CC[C@]4(C)[C@H]3CC[C@]2(C)[C@@]1(OC(C)=O)C(C)=O
Assigned Class: False
--
Compound: c1ccc(Nc2cccc3ccccc23)cc1
Assigned Class: False
--
Compound: CCC[Si](OC)(OC)OC
Assigned Class: False
--
Compound: CCCCCCOc1ccc(N)cc1
Assigned Class: False
--
Compound: CCCCNS(=O)(=O)c1ccc(C)cc1
Assigned Class: False
--
Compound: CC(=O)/C=C/C1C(C)=CCCC1(C)C (stereo not drawn)
Assigned Class: False
--
Compound: O=C(O)/C=C/c1ccccc1
Assigned Class: False
--
Compound: CN(C)c1ccc2nc3ccc(=[N+](C)C)cc-3sc2c1
Assigned Class: True
